Data origin: the supplement of paper PMC10126150

Test system: ATP;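 also: ATP exposure 15 min at 22 °C before imaging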
Assay: switch fluorescence ratio, 500 uM ATP over buffer (Cy3 cluster intensity, sum of 5 cycles each) (fold (ratio)); higher = stronger signal-on switching upon ATP binding; sequences stand for … in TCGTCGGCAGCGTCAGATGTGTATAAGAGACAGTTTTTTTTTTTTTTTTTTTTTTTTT…TC
Conditions: aptamer strand: ATP DNA aptamer (quencher-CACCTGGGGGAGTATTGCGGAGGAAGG + anchor), 100 nM annealed; ATP concentration: 500 uM
experimental endpoint: switch fluorescence ratio
// response body must contain only the number

Worked examples follow.
>  <chain sequence>
TTATTTAGCT

>  <switch fluorescence ratio>
1.01

$$$$
>  <chain sequence>
CGGGGGGGGT

>  <switch fluorescence ratio>
1.01

$$$$
>  <chain sequence>
GGGATGGATA

>  <switch fluorescence ratio>
1.03

$$$$
>  <chain sequence>
TCCAGGTGTG

>  <switch fluorescence ratio>
2.77

$$$$
>  <chain sequence>
CGGAGGGGGT

>  <switch fluorescence ratio>
1.02

$$$$

// below: switch fluorescence ratio requested for another sequence
Ask: Which measured switch fluorescence ratio value corresponds to GGACTTAATG ?
Reply: 1.02

* * *

System: ATP;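 also: ATP exposure 15 min at 22 °C before imaging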
Experiment: switch fluorescence ratio, 500 uM ATP over buffer (Cy3 cluster intensity, sum of 5 cycles each) (fold (ratio)); higher = stronger signal-on switching upon ATP binding; sequences stand for … in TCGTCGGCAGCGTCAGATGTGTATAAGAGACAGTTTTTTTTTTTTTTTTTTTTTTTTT…TC
Settings: aptamer strand: ATP DNA aptamer (quencher-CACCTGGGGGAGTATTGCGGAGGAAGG + anchor), 100 nM annealed; ATP concentration: 500 uM
experimental endpoint: switch fluorescence ratio
Lab note: record the figure alone, no unit after it.

Answered examples (5):
>  <chain sequence>
ATGTGGTCT

>  <assayed system>
ATP;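 also: ATP exposure 15 min at 22 °C before imaging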

>  <switch fluorescence ratio>
1.02

$$$$
>  <chain sequence>
GAGGTGTGGG

>  <assayed system>
ATP;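 also: ATP exposure 15 min at 22 °C before imaging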

>  <switch fluorescence ratio>
0.981

$$$$
>  <chain sequence>
TAAAAAAAGG

>  <assayed system>
ATP;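 also: ATP exposure 15 min at 22 °C before imaging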

>  <switch fluorescence ratio>
1.05

$$$$
>  <chain sequence>
GCGCGGGGCC

>  <assayed system>
ATP;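 also: ATP exposure 15 min at 22 °C before imaging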

>  <switch fluorescence ratio>
0.999

$$$$
>  <chain sequence>
AGGAAGGGGG

>  <assayed system>
ATP;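 also: ATP exposure 15 min at 22 °C before imaging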

>  <switch fluorescence ratio>
0.992

$$$$

Ask: Could you share which switch fluorescence ratio value was measured for TTTTCTTGTT ?
Reply: 0.995

Ask: And then GAGTGGTACC , what is it?
Reply: 1.01

Ask: Next record, please: TTGGCGTCCG
Reply: 0.988

Ask: How about ATGGAAAGCA ?
Reply: 1.05

Ask: Ok, now AGGGATGGGA
Reply: 1.01

Ask: Now give it for GACAAAAGGT too.
Reply: 1.03

* * *

Tested on: ATP;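 also: ATP exposure 15 min at 22 °C before imaging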
Assay: switch fluorescence ratio, 500 uM ATP over buffer (Cy3 cluster intensity, sum of 5 cycles each) (fold (ratio)); higher = stronger signal-on switching upon ATP binding; sequences stand for … in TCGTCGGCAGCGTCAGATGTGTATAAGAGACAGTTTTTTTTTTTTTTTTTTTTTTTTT…TC
Conditions: aptamer strand: ATP DNA aptamer (quencher-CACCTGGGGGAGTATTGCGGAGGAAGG + anchor), 100 nM annealed; ATP concentration: 500 uM
switch fluorescence ratio below 1 gives not met; switch fluorescence ratio at or above it gives met.

>  <chain sequence>
AAAGTTGTCG

>  <label class>
not met

$$$$
>  <chain sequence>
CACGTATCGG

>  <label class>
met

$$$$
>  <chain sequence>
GCACGGGGGG

>  <label class>
met

$$$$
>  <chain sequence>
CAGGAACCGA

>  <label class>
met

$$$$
>  <chain sequence>
AGAGATTCAC

>  <label class>
met

$$$$

Ask: Does switch fluorescence ratio meet or surpass 1 for TGACAGTTAT ?
Reply: met

Ask: Another sequence to check: TTATGGATGT
Reply: met

Ask: Same again, this time with CGTAATATTA
Reply: met

Ask: One more sequence: TTGGGCGCAG
Reply: not met

* * *

Below is a list of entries, each paired with its recorded switch fluorescence ratio value.
Tested on: ATP;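 also: ATP exposure 15 min at 22 °C before imaging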
Assay: switch fluorescence ratio, 500 uM ATP over buffer (Cy3 cluster intensity, sum of 5 cycles each) (fold (ratio)); higher = stronger signal-on switching upon ATP binding; sequences stand for … in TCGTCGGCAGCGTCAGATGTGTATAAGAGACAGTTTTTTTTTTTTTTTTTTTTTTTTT…TC
Conditions: aptamer strand: ATP DNA aptamer (quencher-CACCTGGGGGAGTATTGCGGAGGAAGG + anchor), 100 nM annealed; ATP concentration: 500 uM
Keep the answer to the number alone.

>  <chain sequence>
ACGCGGAGAC

>  <value reported>
1.24

$$$$
>  <chain sequence>
GGTGTTTTTA

>  <value reported>
1.07

$$$$

Ask: Value lookup for switch fluorescence ratio; key = TTGAGCCCCG
Reply: 0.951

Ask: Can you check TTTTTGGAAT next?
Reply: 1

Ask: What do you get for GGGCTAAGAG ?
Reply: 1.05

Ask: Continue with TTGTGTGTTT
Reply: 0.989

Ask: Could you do the same for AAGATACCTG , please?
Reply: 1.08

* * *

// switch fluorescence ratio lookup, one value per entry
Tested on: ATP;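 also: ATP exposure 15 min at 22 °C before imaging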
Assay: switch fluorescence ratio, 500 uM ATP over buffer (Cy3 cluster intensity, sum of 5 cycles each) (fold (ratio)); higher = stronger signal-on switching upon ATP binding; sequences stand for … in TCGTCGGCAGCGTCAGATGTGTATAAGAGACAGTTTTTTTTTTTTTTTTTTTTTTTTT…TC
Conditions: aptamer strand: ATP DNA aptamer (quencher-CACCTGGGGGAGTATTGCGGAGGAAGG + anchor), 100 nM annealed; ATP concentration: 500 uM
No unit in the answer, please; the number alone is enough.

Consider the reported switch fluorescence ratio for these sequences:
>  <chain sequence>
TTATACGGAG

>  <switch fluorescence ratio>
1.01

$$$$
>  <chain sequence>
TCGTATTGGT

>  <switch fluorescence ratio>
1.02

$$$$
>  <chain sequence>
ACATTGACGC

>  <switch fluorescence ratio>
1.08

$$$$
>  <chain sequence>
CTAGGAGGGC

>  <switch fluorescence ratio>
1

$$$$

Next up:
Ask: Entry under review: AGAAATCGGA . Reported switch fluorescence ratio?
Reply: 1.04

* * *

Test system: ATP;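 also: ATP exposure 15 min at 22 °C before imaging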
Test: switch fluorescence ratio, 500 uM ATP over buffer (Cy3 cluster intensity, sum of 5 cycles each) (fold (ratio)); higher = stronger signal-on switching upon ATP binding; sequences stand for … in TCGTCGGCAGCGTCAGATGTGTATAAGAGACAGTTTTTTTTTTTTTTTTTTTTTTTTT…TC
Conditions: aptamer strand: ATP DNA aptamer (quencher-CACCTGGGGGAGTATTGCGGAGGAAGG + anchor), 100 nM annealed; ATP concentration: 500 uM
# switch fluorescence ratio annotations
Response field accepts a number only; no unit should be typed.

As a guide, the following entries are already answered.
>  <chain sequence>
TCCTGTACTG

>  <switch fluorescence ratio>
1.04

$$$$
>  <chain sequence>
ATAGTTGTTT

>  <switch fluorescence ratio>
1

$$$$
>  <chain sequence>
ACGCTGTTGA

>  <switch fluorescence ratio>
1.03

$$$$
>  <chain sequence>
GATATATTTT

>  <switch fluorescence ratio>
0.976

$$$$
>  <chain sequence>
CGATTCACTT

>  <switch fluorescence ratio>
1.02

$$$$

Ask: Recorded switch fluorescence ratio for GCGGATTGTG , please?
Reply: 1.03

Ask: Lookup GATGGGGTTC
Reply: 1.01

Ask: ATATACAGGG , same question.
Reply: 1.06

Ask: Queued: CGGGGTTAAG
Reply: 0.975

Ask: Follow-up entry: TTCAGGCTGT
Reply: 0.981

Ask: Subsequent entry: AGTACCATGG
Reply: 1.01

Ask: Then what about the sequence ATTCAAGCCT ?
Reply: 1.15

Ask: Now consider CGGGGGATCC .
Reply: 1.13

Ask: Further, for TGCCCCGATA ?
Reply: 2.66

Ask: Follow-up item: TACTTGGGTC
Reply: 1.06

* * *

Tested on: ATP;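 also: ATP exposure 15 min at 22 °C before imaging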
Assay: switch fluorescence ratio, 500 uM ATP over buffer (Cy3 cluster intensity, sum of 5 cycles each) (fold (ratio)); higher = stronger signal-on switching upon ATP binding; sequences stand for … in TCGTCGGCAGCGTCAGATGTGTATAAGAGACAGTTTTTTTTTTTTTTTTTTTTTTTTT…TC
Settings: aptamer strand: ATP DNA aptamer (quencher-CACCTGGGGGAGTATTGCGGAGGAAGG + anchor), 100 nM annealed; ATP concentration: 500 uM
Examples of sequences with documented switch fluorescence ratio follow.
Lab note: jot down the number only; don't add units.

Sample answers from the record:
>  <chain sequence>
TATGTGTTGC

>  <experimental endpoint>
switch fluorescence ratio

>  <value reported>
1.03

$$$$
>  <chain sequence>
CGAGGGGGTT

>  <experimental endpoint>
switch fluorescence ratio

>  <value reported>
1

$$$$
>  <chain sequence>
TCATCGGGGT

>  <experimental endpoint>
switch fluorescence ratio

>  <value reported>
0.994

$$$$
>  <chain sequence>
TTGATCAACG

>  <experimental endpoint>
switch fluorescence ratio

>  <value reported>
0.995

$$$$
>  <chain sequence>
TGGGGTCTGA

>  <experimental endpoint>
switch fluorescence ratio

>  <value reported>
0.974

$$$$
>  <chain sequence>
CAGTTGAGGT

>  <experimental endpoint>
switch fluorescence ratio

>  <value reported>
0.998

$$$$

Ask: Could you share which switch fluorescence ratio value was measured for ACTTAAAAAC ?
Reply: 1.08

Ask: // next record TAGGTCGGTG
Reply: 0.993

Ask: Note, next up: ATACACGGCG
Reply: 1.04
